Each entry below carries its recorded Plant response rating, Ragweed.
# Tested on: ragweed (common ragweed, Ambrosia elatior)
# test: Test A postemergence, ragweed
# Type: in vivo
# measurement-context: 500 g ai/ha, 0 to 100 scale
Hey, just send me the number, nothing else.

Some solved entries appear below for comparison.
COc1c(C)nn(C)c(=O)c1C1=CCC(C)(C)c2ccccc21 [Compound 6]; 20
CC1=C(c2c(O)c(C)nn(C)c2=O)c2ccccc2CC1 [Compound 2]; 90

Under ragweed (common ragweed, Ambrosia elatior), report Plant response rating, Ragweed for CC1=C(c2c(O)c(C)nn(C)c2=O)c2ccccc2OC1 [Compound 3] 90

Report value only: Plant response rating, Ragweed, ragweed (common ragweed, Ambrosia elatior), Cc1nn(C)c(=O)c(C2=CCC(C)(C)c3ccccc32)c1O [Compound 7] 70
